System: Human immunodeficiency virus 1
Experiment: Resistance index, ratio of EC50 for HIV-1 IRLL98 harboring reverse transcriptase M41L, D67N, Y181C, M184V, R211K, and T215Y mutants to EC50 for wild type HIV-1 NL4-3
Format: functional
Reported Endpoint: Ratio EC50
One number for each entry.

Consider the worked cases shown below.
Compound | Ratio EC50
Cc1c(O)nc(SC(C)C)nc1C(C)c1c(F)cccc1F (stereo not drawn) | 145
CCCN(C)c1nc(C(OC)c2c(Cl)cccc2Cl)c(C)c(=O)[nH]1 (stereo not drawn) | 2
CCCNc1nc(C(C)c2c(F)cccc2F)c(C)c(=O)[nH]1 (stereo not drawn) | 30

Below are 7 compounds. Give each one its Ratio EC50.
1. COC(c1nc(SC2CCCC2)[nH]c(=O)c1C)c1c(F)cccc1Cl (stereo not drawn)
2. Cc1c(C(C)c2c(F)cccc2Cl)nc(SC(C)C)[nH]c1=O (stereo not drawn)
3. COC(c1nc(NC2CCCC2)[nH]c(=O)c1C)c1c(F)cccc1F (stereo not drawn)
4. COC(c1nc(SC(C)C)[nH]c(=O)c1C)c1c(F)cccc1F (stereo not drawn)
5. Cc1c(C(C)c2c(F)cccc2Cl)nc(SC2CCCC2)[nH]c1=O (stereo not drawn)
6. COC(c1nc(NC(C)C)[nH]c(=O)c1C)c1c(F)cccc1F (stereo not drawn)
7. CCC(c1nc(SC(C)C)[nH]c(=O)c1C)c1c(F)cccc1F (stereo not drawn)

Completion:
1: 17; 2: 1875; 3: 2; 4: 31; 5: 2267; 6: 5; 7: 70

Below are 2 compounds. Give each one its Ratio EC50.
1. Cc1c(C(C)c2c(F)cccc2F)nc(NC(C)C)[nH]c1=O (stereo not drawn)
2. CCC(C)Sc1nc(C(OC)c2c(F)cccc2F)c(C)c(=O)[nH]1 (stereo not drawn)

Completion:
[7, 27]

meta.source: ChEMBL document CHEMBL4371047
